protocol_details: AUC (total) in Sprague-Dawley rat at 20 mg/kg, po
Format: ADME, organism-based
Design: dose 20 mg/kg, route po
condition_summary: in vivo
observation_type: AUC (ng·h/mL)
Give the number; ng·h/mL is assumed, so skip it.

Which measured AUC value corresponds to `COc1cc(C(=O)NC2CCNCC2)ccc1Nc1nc(Oc2cccc3c2C(=O)CC3)c2cc[nH]c2n1` ?
78.8

====

protocol_details: AUClast in Sprague-Dawley rat at 20 mg/kg, po
Assay type: ADME, organism-based
Set-up: time 0 - last, dose 20 mg/kg, route po
condition_summary: in vivo
observation_type: AUC(0-t) (ng·h/mL)
Respond with the bare value in ng·h/mL.

Name the recorded AUC(0-t) for `COc1cc(C(=O)NC2CCNCC2)ccc1Nc1nc(Oc2cccc3c2C(=O)CC3)c2cc[nH]c2n1` .
59.6
